- MEASUREMENT_TARGET: human PDL1 protein (Octet assay) (human, UniProt Q9NZQ7 19-238)
- Sequence (Q9NZQ7 19-238 limits assumed): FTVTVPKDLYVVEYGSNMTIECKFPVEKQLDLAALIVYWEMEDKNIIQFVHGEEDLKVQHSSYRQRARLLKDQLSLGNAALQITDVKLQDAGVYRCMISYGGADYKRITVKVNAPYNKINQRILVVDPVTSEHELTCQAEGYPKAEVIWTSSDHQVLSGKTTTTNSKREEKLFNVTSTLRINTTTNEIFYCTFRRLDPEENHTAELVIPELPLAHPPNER
- ASSAY_COMMENT: Octet; antibody on sensor, PDL1 protein in solution
EXPERIMENTAL_READOUT: koff (s⁻¹)

binder="Anti-PDL1/SIRPα bispecific antibody ES019-024 (bispecific antibody, not shown: a dimerising Fc or GST) light: QIVLTQSPAIMSASPGEKVTLTCSASSSVSSSYLYWYQQKPGSSPKLWIYSTSNLASGVPARFSGSGSGTSYSLTISSMEAEDAASYFCHQWSSYPYTFGGGTKLEIK heavy (part 1 of 2): EVQLQQSGAELVKPGASVKLSCTASGFNIKDYYMHWVKQRTEQGLEWIGRIDPEDGETKYAPKFQGKATITADTSSNTAYLQLSSLTSEDTAVYYCDRGLAYWGQGTLVTVSA heavy (part 2 of 2): EVQVVESGGGLVQSGGSLKLSCAGSGFTESAGFMVWHRQVPGKERELVALIATPSGSTNYADSVKGRFTISRDNGKNTVYLQMNSLKPEDTAVYYCNIRGYWGQGTLVTVSS" recorded_measurement=0.00603
binder="Anti-PDL1 antibody 570h3 (antibody, V domains shown, Humanized heavy chain antibody; also called Anti-PDL1, 570h3) VH: EVQLVESGGGLVQPGGSLRLSCAASGFTFSSHAMSWVRQAPGKGLEWVSDIDTSGTTTDYADSVKGRFTISRDNSKNTLYLQMNSLRAEDTAVYYCAKGPREATDIRSWGQGTTVTVSS" recorded_measurement=9.29e-05
binder="Anti-PDL1/SIRPα bispecific antibody ES019-029 (bispecific antibody) chain 1: EVQVVESGGGLVQSGGSLKLSCAGSGFTESAGFMVWHRQVPGKERELVALIATPSGSTNYADSVKGRFTISRDNGKNTVYLQMNSLKPEDTAVYYCNIRGYWGQGTLVTVSS chain 2: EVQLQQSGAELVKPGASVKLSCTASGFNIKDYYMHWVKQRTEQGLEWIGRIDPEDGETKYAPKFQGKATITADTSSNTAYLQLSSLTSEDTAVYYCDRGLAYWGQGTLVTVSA chain 3: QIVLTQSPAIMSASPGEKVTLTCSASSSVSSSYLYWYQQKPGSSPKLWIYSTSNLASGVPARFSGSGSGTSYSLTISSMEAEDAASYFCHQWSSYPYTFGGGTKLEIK" recorded_measurement=0.00136
